species: Rattus norvegicus; experiment: Compound was tested against the effect of D-Lys3-GHRP-6 on the release of growth hormone from pituitary cells in rat; type: functional, cell-based; settings: Pituitary gland cell
readout-name: pIC50
Answer as the number alone; pIC50 is minus log10 of concentration in mol/L.

Quick one: give measured pIC50 for CNC(=O)[C@@H](Cc1ccc(F)cc1)N(C)C(=O)[C@@H](Cc1ccc2ccccc2c1)N(C)C(=O)/C=C/CC(C)(C)N 5.05

Consider the molecule C[C@H](NC(=O)C(Cc1c[nH]c2ccccc12)NC(=O)[C@@H](N)Cc1c[nH]cn1)C(=O)N[C@@H](Cc1c[nH]c2ccccc12)C(=O)NC(Cc1ccccc1)C(=O)N[C@@H](CCCCN)C(N)=O (single isomer, unassigned) . State its measured pIC50. 5.10

Find the measured pIC50 of C[C@@H](O)CNC(=O)[C@@H](Cc1ccccc1)N(C)C(=O)[C@@H](Cc1ccc2ccccc2c1)N(C)C(=O)/C=C/CC(C)(C)N (stereo in doubt; 7b) and report it. 5.10
